Tested on: HPPD polypeptides
Assay: coupled HPPD activity assay: turnover and residual turnover in crude extracts
Type: biochemical, Pseudomonas fluorescens
Settings: presence of 100 μM Cmpd. 1; high substrate concentration; changes in absorbance (OD) at 320 nm
Reported Residual turnover values for a set of molecules

molecule	Residual turnover
26 (protein, mutant HPPD polypeptide) MADLYENPMGLMGFEFIEFASPTPGTLEPIFEIMGFTKVATHRSKNVHLYRQGEINLILNNEPNSIASYFAAEHGPSVCGMAFRVKDSQKAYNRALELGAQPIHIDTGPMELNLPAIKGIGGAPLYLIDRFGEGSSIYDIDFVYLEGVERNPVGAGLKVIDHLTHNVYRGRMVYWANFYEKLFNFREARYFDIKGEYTGLTSKAMSAPDGMIRIPLNEESSKGAGQIEEFLMQFNGEGIQHVAFLTDDLVKTWDALKKIGMRFMTAPPDTYYEMLEGRLPDHGEPVDQLQARGILLDGSSVEGDKRLLLQIFSETLMGPVFFEFIQRKGDDGFGPHSFKVLFESIERDQVRRGVLTAD	0.077
68 (protein, mutant HPPD polypeptide) MADLYENPMGLMGFEFIEFASPTPGTLEPIFEIMGFTKVATHRSKNVHLYRQGEINLILNNEPNSIASYFAAEHGPSVCGMAFRVKDSQKAYNRALELGAQPIHIDTGPMELNLPAIKGIGGAPLYLIDRFGEGSSIYDIDFVYLEGVERNPVGAGLKVIDHLTHNVYRGRMVYWANFYEKLFNFREARYFDIKGEYTGLTSKAMSAPDGMIRIPLNEESSKGAGQIEEFLMQFNGEGIQHVAFLTDDLVKTWDALKKIGMRFMTAPADSYYEMLEGRLPDHGEPVDQLQARGILLDGSSVEGDKRLLLQIFSEQLMGPVFFEFIQRKGDDGFGPHSFKVLFEQMERDQVRRGVLTAD	0.223
